molecular target: CaV2.2 (Homo sapiens); construct: expressed in transfected cells; host or cells: unnamed doxycycline-inducible cell line; test: High-throughput CaV2.2/Kir2.3 FLIPR fluorescent assay; assay type: cell-based; conditions: FLIPR data CaV2.2 (nM), Table 5; Fluo-4 FLIPR; closed or inactivated state not stated
Sequence (Q00975 whole entry): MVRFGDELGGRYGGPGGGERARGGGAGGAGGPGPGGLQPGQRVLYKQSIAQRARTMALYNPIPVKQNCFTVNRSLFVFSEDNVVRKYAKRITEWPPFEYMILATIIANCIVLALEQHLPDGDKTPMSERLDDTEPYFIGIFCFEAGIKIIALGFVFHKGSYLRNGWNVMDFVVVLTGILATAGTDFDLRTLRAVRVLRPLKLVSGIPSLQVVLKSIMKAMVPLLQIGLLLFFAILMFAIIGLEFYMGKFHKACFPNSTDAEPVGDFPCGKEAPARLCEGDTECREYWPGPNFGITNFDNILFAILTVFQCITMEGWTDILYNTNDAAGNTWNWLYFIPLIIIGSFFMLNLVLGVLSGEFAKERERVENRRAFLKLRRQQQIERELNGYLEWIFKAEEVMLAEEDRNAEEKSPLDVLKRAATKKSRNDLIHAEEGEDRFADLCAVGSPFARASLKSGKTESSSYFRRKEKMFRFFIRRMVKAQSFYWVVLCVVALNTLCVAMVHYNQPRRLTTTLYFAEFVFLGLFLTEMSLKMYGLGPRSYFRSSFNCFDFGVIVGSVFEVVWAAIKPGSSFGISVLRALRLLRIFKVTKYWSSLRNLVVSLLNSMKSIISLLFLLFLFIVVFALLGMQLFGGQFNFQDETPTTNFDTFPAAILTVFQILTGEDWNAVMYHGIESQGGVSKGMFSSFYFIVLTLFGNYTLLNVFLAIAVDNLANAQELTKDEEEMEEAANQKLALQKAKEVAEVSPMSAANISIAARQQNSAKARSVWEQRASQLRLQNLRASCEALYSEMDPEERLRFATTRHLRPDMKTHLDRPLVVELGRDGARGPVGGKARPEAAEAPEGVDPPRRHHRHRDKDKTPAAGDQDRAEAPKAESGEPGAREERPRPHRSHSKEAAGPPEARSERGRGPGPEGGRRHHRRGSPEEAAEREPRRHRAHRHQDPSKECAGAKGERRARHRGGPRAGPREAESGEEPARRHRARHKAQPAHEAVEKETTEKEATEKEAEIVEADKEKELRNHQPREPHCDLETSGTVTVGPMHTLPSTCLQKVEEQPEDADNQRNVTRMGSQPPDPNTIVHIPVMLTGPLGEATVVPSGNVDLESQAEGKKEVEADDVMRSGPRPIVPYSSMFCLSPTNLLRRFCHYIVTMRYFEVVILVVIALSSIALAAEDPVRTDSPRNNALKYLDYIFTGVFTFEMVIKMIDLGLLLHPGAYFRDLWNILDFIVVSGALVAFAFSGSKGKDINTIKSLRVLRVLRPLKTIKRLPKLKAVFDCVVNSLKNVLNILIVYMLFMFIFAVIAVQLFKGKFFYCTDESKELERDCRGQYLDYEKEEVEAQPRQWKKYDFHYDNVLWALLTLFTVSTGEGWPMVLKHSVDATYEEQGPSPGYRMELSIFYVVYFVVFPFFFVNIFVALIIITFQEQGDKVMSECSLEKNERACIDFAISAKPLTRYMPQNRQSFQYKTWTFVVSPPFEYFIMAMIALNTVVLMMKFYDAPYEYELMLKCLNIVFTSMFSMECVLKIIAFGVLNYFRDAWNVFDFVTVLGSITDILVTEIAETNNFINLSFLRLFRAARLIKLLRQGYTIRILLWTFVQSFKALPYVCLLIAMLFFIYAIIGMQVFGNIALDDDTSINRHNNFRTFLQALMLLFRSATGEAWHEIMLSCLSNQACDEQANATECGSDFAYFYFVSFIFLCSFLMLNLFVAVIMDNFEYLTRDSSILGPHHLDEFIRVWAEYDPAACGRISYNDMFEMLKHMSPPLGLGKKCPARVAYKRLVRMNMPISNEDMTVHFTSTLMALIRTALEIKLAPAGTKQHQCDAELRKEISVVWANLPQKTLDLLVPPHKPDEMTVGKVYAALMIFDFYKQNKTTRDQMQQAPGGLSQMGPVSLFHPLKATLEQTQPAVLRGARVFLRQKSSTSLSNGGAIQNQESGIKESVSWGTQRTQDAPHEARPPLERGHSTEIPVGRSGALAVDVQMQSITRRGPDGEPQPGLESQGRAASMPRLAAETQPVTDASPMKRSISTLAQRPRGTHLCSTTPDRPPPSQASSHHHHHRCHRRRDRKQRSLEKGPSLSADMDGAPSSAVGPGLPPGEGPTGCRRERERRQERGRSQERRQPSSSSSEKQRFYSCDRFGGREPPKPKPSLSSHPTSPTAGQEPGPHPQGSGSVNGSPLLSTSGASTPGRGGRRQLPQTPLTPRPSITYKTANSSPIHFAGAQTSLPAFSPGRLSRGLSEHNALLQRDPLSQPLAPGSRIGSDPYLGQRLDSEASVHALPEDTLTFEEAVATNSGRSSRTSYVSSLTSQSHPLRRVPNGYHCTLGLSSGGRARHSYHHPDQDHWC
Sequence (P54284 whole entry partner): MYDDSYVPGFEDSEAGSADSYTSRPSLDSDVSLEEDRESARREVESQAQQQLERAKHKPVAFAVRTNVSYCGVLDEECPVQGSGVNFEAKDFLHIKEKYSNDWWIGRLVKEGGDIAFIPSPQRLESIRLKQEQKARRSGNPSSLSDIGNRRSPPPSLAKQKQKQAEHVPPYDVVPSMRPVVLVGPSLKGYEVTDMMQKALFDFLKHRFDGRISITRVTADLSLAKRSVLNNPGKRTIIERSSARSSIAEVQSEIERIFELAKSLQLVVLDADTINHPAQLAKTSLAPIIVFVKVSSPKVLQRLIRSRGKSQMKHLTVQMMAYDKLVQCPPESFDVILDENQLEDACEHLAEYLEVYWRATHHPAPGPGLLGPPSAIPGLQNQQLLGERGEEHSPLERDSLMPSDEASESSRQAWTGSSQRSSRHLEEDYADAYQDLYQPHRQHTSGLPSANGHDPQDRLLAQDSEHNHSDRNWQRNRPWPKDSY
Sequence (P54289 25-946 partner limits assumed): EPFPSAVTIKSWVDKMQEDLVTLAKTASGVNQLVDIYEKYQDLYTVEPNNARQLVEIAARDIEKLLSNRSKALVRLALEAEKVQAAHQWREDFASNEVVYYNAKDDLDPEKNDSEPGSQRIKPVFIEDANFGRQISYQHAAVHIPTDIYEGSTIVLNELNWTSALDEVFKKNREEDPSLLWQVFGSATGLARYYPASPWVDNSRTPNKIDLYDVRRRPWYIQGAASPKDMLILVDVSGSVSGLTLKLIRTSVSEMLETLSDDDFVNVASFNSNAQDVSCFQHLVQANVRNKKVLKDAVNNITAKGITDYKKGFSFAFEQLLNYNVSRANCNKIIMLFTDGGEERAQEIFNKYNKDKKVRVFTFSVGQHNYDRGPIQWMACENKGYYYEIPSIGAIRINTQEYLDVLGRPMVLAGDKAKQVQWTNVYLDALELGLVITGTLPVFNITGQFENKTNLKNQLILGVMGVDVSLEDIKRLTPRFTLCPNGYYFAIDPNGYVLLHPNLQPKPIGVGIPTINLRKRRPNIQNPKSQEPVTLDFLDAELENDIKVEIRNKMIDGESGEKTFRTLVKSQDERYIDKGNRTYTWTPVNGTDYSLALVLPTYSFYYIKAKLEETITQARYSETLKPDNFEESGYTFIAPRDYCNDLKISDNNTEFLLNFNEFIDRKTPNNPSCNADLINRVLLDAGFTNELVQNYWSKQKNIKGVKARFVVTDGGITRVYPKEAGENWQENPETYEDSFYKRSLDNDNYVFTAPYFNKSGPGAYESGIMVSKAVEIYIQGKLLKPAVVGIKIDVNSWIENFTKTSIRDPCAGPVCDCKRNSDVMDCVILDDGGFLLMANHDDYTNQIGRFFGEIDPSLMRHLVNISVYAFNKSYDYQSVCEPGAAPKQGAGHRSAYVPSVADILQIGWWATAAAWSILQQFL
Sequence (P54289 947-1103 partner limits assumed): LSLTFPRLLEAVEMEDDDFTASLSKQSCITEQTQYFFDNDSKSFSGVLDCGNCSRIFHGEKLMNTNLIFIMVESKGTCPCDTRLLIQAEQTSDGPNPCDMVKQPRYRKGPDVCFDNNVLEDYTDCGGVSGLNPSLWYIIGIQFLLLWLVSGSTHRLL
ATTRIBUTE_MEASURED: IC50 (nM)
# output: bare number, implied unit nM

Prompt line: What value of IC50 has been recorded for this entry: CC(C)C[C@H](CN)CC(=O)NCCC(C)(C)S(=O)(=O)c1cccc(C(F)(F)F)c1 [Compound 224]
Response line: 470

Prompt line: What value of IC50 has been recorded for this entry: CC(C)(C(=O)NCCC(F)(F)F)S(=O)(=O)c1cccc(C(F)(F)F)c1 [Compound 125]
Response line: 10000

FYI, the data here is from patent US20140113898A1.
